Source of measurements: PubChem BioAssay AID256

Exercise: state measured T/C for each of the molecules provided.
tested on: CD2F1 mice, L1210 leukemia ip, survival T/C; assay: NCI In Vivo Anticancer Drug Screen. Data for tumor model L1210 Leukemia (intraperitoneal) in CD2F1 (CDF1) mice; details: endpoint: mean survival time; dose: 12.5 mg/kg/injection; schedule: Q01DX009 (ip); vehicle: water; higher = longer survival
Inconclusive results and toxic doses are left out.

Study these solved cases before continuing.
O=C1NC(CN2CCCCC2)C(=O)NC1CN1CCCCC1 (centres undefined)	105 % of control
C[n+]1c(-c2cc(Cl)cc(Cl)c2)c2cc(N)ccc2c2ccccc21	108 % of control
COC(=O)c1cn(C2OC(CO)C(O)C2O)c2ncnc(N)c12 (centres undefined)	122 % of control

Observed T/C on CD2F1 mice, L1210 leukemia ip, survival T/C for "CC(=O)C(=O)C1=C2CCCN2CCc2cc3c(cc21)OCO3" , please. 96 % of control

* * *

Exercise: state measured T/C for each of the compounds provided.
tested on: CD2F1 mice, L1210 leukemia ip, survival T/C; assay: NCI In Vivo Anticancer Drug Screen. Data for tumor model L1210 Leukemia (intraperitoneal) in CD2F1 (CDF1) mice; conditions: endpoint: mean survival time; dose: 200.0 mg/kg/injection; schedule: Q01DX001 (ip); vehicle: saline with Tween-80; higher = longer survival
Toxic doses and inconclusive results are not listed.

Study these solved cases before continuing.
Nc1ccc2oc(=O)c(C(=O)O)cc2c1	89 % of control
Nc1nc(=O)n(CCCOc2ccccc2NC(=O)c2ccc(S(=O)(=O)F)cc2)cc1-c1ccc(Cl)c(Cl)c1	93 % of control
O=C1OC2(c3cc(I)c(O)c(I)c3Oc3c2cc(I)c(O)c3I)c2c(Cl)ccc(Cl)c21	87 % of control

Quick one: give me T/C for each item below, same order please.
1. O=C(c1ccccc1)c1ccc2cc(O)ccc2c1
2. O=[N+]([O-])c1ccc(N/N=C2\C(c3ccccc3)=C(c3ccccc3)CC2Cl)c([N+](=O)[O-])c1 (stereo unspecified)
3. COc1ccc(C(O)(c2ccccc2)C(OC(=O)c2cc([N+](=O)[O-])cc([N+](=O)[O-])c2)c2ccccc2)cc1 (stereo unspecified)
4. CC1(C)C(=O)OC(=O)C(C)(Br)C1(C)C (stereo unspecified)
5. CNC(=O)O/N=C1\CCCc2sccc21
6. O=C(Cc1ccccc1)c1ccccc1

92 % of control
101 % of control
94 % of control
96 % of control
110 % of control
102 % of control

Quick one: give me T/C for each item below, same order please.
1. Nc1ncnc2c1ncn2CCC(=O)O
2. COc1cc(C=Nc2cccc3ccccc23)cc(OC)c1OC

92 % of control
95 % of control

* * *

tested on: CD2F1 mice, L1210 leukemia ip, survival T/C; experiment: NCI In Vivo Anticancer Drug Screen. Data for tumor model L1210 Leukemia (intraperitoneal) in CD2F1 (CDF1) mice; details: endpoint: mean survival time; dose: 25.0 mg/kg/injection; schedule: Q04DX003 (ip); vehicle: saline with Tween-80; higher = longer survival
Inconclusive results and toxic doses are left out.
Assay metric: T/C

Study these solved cases before continuing.
CC(NCCN(C)C)C1CCC2C3CCC4CC(O)CCC4(C)C3CCC12C (stereo not given)	95 % of control
CCOC(=O)c1ccc(NC(=O)Nc2ccc(Cl)cc2Cl)cc1	86 % of control
Nc1c([N+](=O)[O-])cncc1[N+](=O)[O-]	102 % of control
COc1ccc(C(=O)/C=N/O)cc1	100 % of control

From here, focus on the item given below.
Returns the measured T/C for the input compound. Input: CC(=O)NC1C(OC(C)=O)OC(COC(c2ccccc2)(c2ccccc2)c2ccccc2)C(O)C1OC(C)=O (stereo not given) 95 % of control
